Test system: hGALK1m (Homo sapiens, UniProt P51570, E253A/K252A)
Construct: made in house; host or cells: E. coli HMS174
Sequence (P51570 whole entry K252A/E253A): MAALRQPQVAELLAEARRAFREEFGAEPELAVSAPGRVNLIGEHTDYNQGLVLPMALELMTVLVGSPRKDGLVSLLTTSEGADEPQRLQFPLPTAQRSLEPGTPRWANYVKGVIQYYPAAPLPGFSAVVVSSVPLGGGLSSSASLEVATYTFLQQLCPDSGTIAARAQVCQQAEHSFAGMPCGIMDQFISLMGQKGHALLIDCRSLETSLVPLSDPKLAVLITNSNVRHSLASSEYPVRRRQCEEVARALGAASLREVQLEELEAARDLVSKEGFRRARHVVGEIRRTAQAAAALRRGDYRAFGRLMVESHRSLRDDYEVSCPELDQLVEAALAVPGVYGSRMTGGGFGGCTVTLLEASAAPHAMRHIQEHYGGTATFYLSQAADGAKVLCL
Assay remarks: in vitro hGALK1 activity assay of the structure-based optimisation (Example 12, Tables 17-20)
Type: biochemical
Condition label: Tables 18-19; read-out: Max Response (%)
Parameter: Emax
Returns: string containing the numeric result and its unit.

Guide cases for Emax, answers given:
INSERT INTO measurements (compound, test_system, parameter, obs_value) VALUES
  ('CC1=C(C(=O)Nc2cc(C(=O)O)ccn2)C(c2cccc(C(N)=O)c2)N=C(Nc2nc3ccc(F)cc3o2)N1 (stereo not shown)', 'hGALK1m (Homo sapiens, UniProt P51570, E253A/K252A)', 'Emax', '90%'),
  ('CC1=C(C(=O)Nc2cc(C(=O)O)ccn2)C(c2ccccc2Cl)N=C(Nc2nc3cc(Cl)ccc3o2)N1 (stereo not shown)', 'hGALK1m (Homo sapiens, UniProt P51570, E253A/K252A)', 'Emax', '100%'),
  ('CC1=C(C(=O)Nc2cc(C(=O)O)ccn2)C(c2ccccc2Cl)N=C(Nc2nc3cccc(N)c3o2)N1 (racemic)', 'hGALK1m (Homo sapiens, UniProt P51570, E253A/K252A)', 'Emax', '100%'),
  ('CC1=C(C(=O)Nc2cc(C(=O)O)ccn2)C(c2ccccc2Cl)N=C(Nc2nc3c(C)cccc3o2)N1 (stereo not shown)', 'hGALK1m (Homo sapiens, UniProt P51570, E253A/K252A)', 'Emax', '100%'),
  ('CC1=C(C(=O)Nc2cc(C(=O)O)ccn2)C(c2ccccc2Cl)N=C(Nc2nc3ccc(Cl)cc3o2)N1 (stereo not shown)', 'hGALK1m (Homo sapiens, UniProt P51570, E253A/K252A)', 'Emax', '100%'),
  ('CC1=C(C(=O)Nc2cc(C(=O)O)ccn2)C(c2cccc(C(F)(F)F)c2Cl)N=C(Nc2nc3ccc(F)cc3o2)N1 (stereo not shown)', 'hGALK1m (Homo sapiens, UniProt P51570, E253A/K252A)', 'Emax', '97%');

Q) # get_value(readout='Emax', item= COc1ccc2oc(NC3=NC(c4ccccc4Cl)C(C(=O)Nc4cc(C(=O)O)ccn4)=C(C)N3)nc2c1 (stereo not shown) )
A) 100%

----------
# Emax listing for each entry below
Test system: hGALK1m (Homo sapiens, UniProt P51570, E253A/K252A)
Construct: made in house; host or cells: E. coli HMS174
Assay remarks: in vitro hGALK1 activity assay of the structure-based optimisation (Example 12, Tables 17-20)
Format: biochemical
Condition label: Tables 18-19; read-out: Max Response (%)
The reply should be a number in %, with the unit left off.

Q) # get_value(readout='Emax', item= CC1=C(C(=O)Nc2cc(C(=O)O)ccn2)C(c2ccccc2Cl)N=C(Nc2nc3ccc(C)cc3o2)N1 (stereo not shown) [Compound 6] )
A) 100

----------
Test system: recombinant mouse GALK1 (Mus musculus)
Sequence (Q9R0N0 whole entry): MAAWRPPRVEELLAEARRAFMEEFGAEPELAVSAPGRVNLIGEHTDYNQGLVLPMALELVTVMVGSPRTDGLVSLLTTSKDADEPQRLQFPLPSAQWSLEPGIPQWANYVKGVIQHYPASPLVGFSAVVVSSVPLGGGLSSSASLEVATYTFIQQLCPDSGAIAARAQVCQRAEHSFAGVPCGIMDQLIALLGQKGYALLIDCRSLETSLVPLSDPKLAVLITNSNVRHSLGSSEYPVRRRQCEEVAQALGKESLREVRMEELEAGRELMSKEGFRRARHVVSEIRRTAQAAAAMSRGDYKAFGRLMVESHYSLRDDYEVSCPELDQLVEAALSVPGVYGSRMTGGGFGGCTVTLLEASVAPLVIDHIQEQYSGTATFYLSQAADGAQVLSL
Assay remarks: mGALK1 biochemical activity assay (Kinase-Glo Plus, ATP depletion)
Condition label: Tables 2-15; 35 μM ATP, 100 μM galactose, 1 h; bracketed figure after some values is undefined and not reported; read-out: mGALK IC50
Assign labels as follows, please: satisfied for IC50 below 9 µM; not satisfied for IC50 equal to or exceeding 9 µM.

Please review the following examples before continuing.
INSERT INTO measurements (compound, class_assignment) VALUES
  ('CCOC(=O)c1nnc(NC(=O)C2=C(C)NC(Nc3nc4ccccc4o3)=NC2c2ccccc2Cl)s1 (stereo not drawn)', 'not satisfied'),
  ('CC1=C(C(=O)NCc2cnn(C)c2C)C(c2ccc(C)cc2Cl)N=C(Nc2nc3ccc(F)cc3o2)N1 (stereo not drawn)', 'satisfied'),
  ('CC1=C(C(=O)Nc2cc(C(=O)O)ccn2)C(c2ccccc2Cl)N=C(Nc2nc3cccc(F)c3o2)N1 (stereo not drawn)', 'satisfied'),
  ('CC1=C(C(=O)Nc2ccc(CN3CCOCC3)cc2)C(c2ccccc2Cl)N=C(Nc2nc3ccccc3o2)N1 (stereo not drawn)', 'not satisfied'),
  ('CC1=C(C(=O)Nc2nc(CO)cs2)C(c2ccccc2Cl)N=C(Nc2nc3ccccc3o2)N1 (stereo not drawn)', 'not satisfied'),
  ('CC1=C(C(=O)NCc2cnn(C)c2)C(c2ccccc2Cl)N=C(Nc2nc3ccccc3o2)N1 (stereo not drawn)', 'not satisfied');

Q) Strictly below 9 µM: is that where IC50 of CC1=C(C(=O)NCc2ccc(CO)cc2)C(c2ccccc2Cl)N=C(Nc2nc3ccccc3o2)N1 (stereo not drawn) sits?
A) not satisfied

Q) Strictly below 9 µM: is that where IC50 of CC1=C(C(=O)Nc2cc(N(C)C)ccn2)C(c2ccc(C)cc2Cl)N=C(Nc2nc3ccc(F)cc3o2)N1 (stereo not drawn) sits?
A) satisfied

Q) Strictly below 9 µM: is that where IC50 of CC1=C(C(=O)Nc2ccccc2F)C(c2ccccc2Cl)N=C(Nc2nc3ccccc3o2)N1 (stereo not drawn) sits?
A) not satisfied

----------
# Perm. (1 × 10^−6 cm/sec) listing for each entry below
Assay remarks: PAMPA permeability
Condition label: PAMPA

Guide cases for Perm. (1 × 10^−6 cm/sec), answers given:
INSERT INTO results (molecule, obs_value) VALUES
  ('CC1=C(C(=O)NCc2cnn(C)c2)C(c2ccc(C)cc2Cl)N=C(Nc2nc3ccc(F)c(N)c3o2)N1 (stereo not shown)', '459.1 1 × 10^−6 cm/sec'),
  ('O=C(Nc1nncs1)C1=C(c2cnccn2)NC(Nc2nc3ccccc3o2)=NC1c1ccccc1Cl (stereo not shown)', '60.3 1 × 10^−6 cm/sec'),
  ('COC(=O)c1ccnc(NC(=O)C2=C(C)NC(Nc3nc4ccccc4o3)=NC2c2ccccc2Cl)c1 (stereo not shown)', '27.7 1 × 10^−6 cm/sec');

Proceed to the following item.
Q) # get_value(readout='Perm. (1 × 10^−6 cm/sec)', item= CC1=C(C(=O)Nc2ccc(C(=O)O)cc2)C(c2ccccc2Cl)N=C(Nc2nc3ccccc3o2)N1 (stereo not shown) )
A) 3.6 1 × 10^−6 cm/sec

----------
Assay remarks: rat microsomal stability (RLM)
Condition label: microsomal stability half-life
Parameter: Metab. Stabil. (m)

INSERT INTO assay_data (compound, parameter, obs_value) VALUES
  ('COC(=O)Cc1cccc(NC(=O)C2=C(C)NC(Nc3nc4ccccc4o3)=NC2c2ccccc2Cl)c1 (stereo not shown)', 'Metab. Stabil. (m)', '10.34 m');

Q) # get_value(readout='Metab. Stabil. (m)', item= CC1=C(C(=O)Nc2cccc(-c3nnn[nH]3)c2)C(c2ccccc2Cl)N=C(Nc2nc3ccccc3o2)N1 (stereo not shown) )
A) >30 m

Q) # get_value(readout='Metab. Stabil. (m)', item= CC1=C(C(=O)Nc2ccc(CN3CCOCC3)cc2)C(c2ccccc2Cl)N=C(Nc2nc3ccccc3o2)N1 (stereo not shown) )
A) 22.3 m

Q) # get_value(readout='Metab. Stabil. (m)', item= COC(=O)c1cnc(NC(=O)C2=C(C)NC(Nc3nc4ccccc4o3)=NC2c2ccccc2Cl)s1 (stereo not shown) )
A) 15.91 m

Q) # get_value(readout='Metab. Stabil. (m)', item= CC1=C(C(=O)Nc2ccccc2CO)C(c2ccccc2Cl)N=C(Nc2nc3ccccc3o2)N1 (stereo not shown) )
A) 7.708 m

Q) # get_value(readout='Metab. Stabil. (m)', item= CC1=C(C(=O)NCc2cnn(C)c2)C(c2ccc(F)cc2Cl)N=C(Nc2nc3cccc(N)c3o2)N1 (stereo not shown) )
A) 29.59 m

Q) # get_value(readout='Metab. Stabil. (m)', item= CC1=C(C(=O)Nc2nc(CO)cs2)C(c2ccccc2Cl)N=C(Nc2nc3ccccc3o2)N1 (stereo not shown) )
A) >30 m

----------
Assay remarks: PAMPA permeability
Condition label: PAMPA, GALK lead profile; two values given
Parameter: Papp (×10⁻⁶ cm/s)
The reply should be a number in ×10⁻⁶ cm/s, with the unit left off.

Q) # get_value(readout='Papp', item= CC1=C(C(=O)NCc2cnn(C)c2)C(c2ccc(C)cc2Cl)N=C(Nc2nc3ccc(F)c(N)c3o2)N1 (stereo not shown) [Compound 126] )
A) 390

----------
Test system: hGALK1m (Homo sapiens, UniProt P51570, E253A/K252A)
Assay remarks: surface plasma resonance (SPR) binding
Condition label: SPR at 4° C.
Parameter: Kd (nM)
The reply should be a number in nM, with the unit left off.

INSERT INTO measurements (compound, obs_value) VALUES
  ('CC1=C(C(=O)Nc2cc(C(=O)O)ccn2)C(c2ccccc2Cl)N=C(Nc2nc3cccc(N)c3o2)N1 (racemic)', 12);

Proceed to the following item.
Q) # get_value(readout='Kd', item= CC1=C(C(=O)Nc2cc(C(=O)O)ccn2)C(c2ccccc2Cl)N=C(Nc2nc3ccc(F)cc3o2)N1 (racemic) )
A) 23

----------
# Perm. (1 × 10^−6 cm/sec) listing for each entry below
Assay remarks: PAMPA permeability
Condition label: PAMPA

Guide cases for Perm. (1 × 10^−6 cm/sec), answers given:
INSERT INTO results (compound, obs_value) VALUES
  ('CC1=C(C(=O)Nc2ccccc2Cl)C(c2ccccc2Cl)N=C(Nc2nc3ccccc3o2)N1 (stereo not shown)', '56.0 1 × 10^−6 cm/sec'),
  ('CC1=C(C(=O)N2CCOCC2)C(c2ccccc2Cl)N=C(Nc2nc3ccccc3o2)N1 (stereo not shown)', '1046.7 1 × 10^−6 cm/sec'),
  ('CC1=C(C(=O)NCc2ccccc2O)C(c2ccccc2Cl)N=C(Nc2nc3ccccc3o2)N1 (stereo not shown)', '<19.3 1 × 10^−6 cm/sec');

Proceed to the following item.
Q) # get_value(readout='Perm. (1 × 10^−6 cm/sec)', item= CC1=C(C(=O)NCc2cncs2)C(c2ccccc2Cl)N=C(Nc2nc3ccccc3o2)N1 (stereo not shown) )
A) 507.4 1 × 10^−6 cm/sec

From: patent US20230158025A1
